# assay.method.text: small molecules binding CAG repeat RNA – biochemical, fluorescence, confirmation (AID 652065);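 also: loss of TO-PRO-1 fluorescence as compound displaces dye from 1x1 AA loop RNA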
# particulars: r(CAG) RNA repeat, TO-PRO-1 dye displacement fluorescence; at 3 µM
About 3,000 (70%) of roughly 4,300 compounds were called active.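 The calls were made as follows: active = inhibition above a per-plate cutoff, the mean inhibition of sample wells plus 3 SD (cut at about 35% in these data); inactive = the rest.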 The set was probably picked from earlier hits. Not all results are given here.
Please answer using one outcome listed in active, inactive

These solved cases illustrate the format of a correct answer.
CC/C(=N\NC(=O)c1ccccc1O)c1c(O)n(Cc2ccccc2)c(=O)[nH]c1=O    active
COc1cccc(N2C(=O)NC(=O)/C(=C\c3ccc([N+](=O)[O-])s3)C2=O)c1    active
O=C1NC(=O)N(Cc2ccco2)C(=O)/C1=C\c1ccc(-c2ccc(F)cc2)o1    inactive

Next up:
Exercise: Per the assay record, what outcome was assigned to O=C1CC(=O)N(Cc2ccccc2)C(=O)N1CCCCCCN1C(=O)CC(=O)N(Cc2ccccc2)C1=O ?
Solution: active
